IC50 tested on human β1‐adrenoceptor (Homo sapiens): recorded values
Sequence (P08588 whole entry): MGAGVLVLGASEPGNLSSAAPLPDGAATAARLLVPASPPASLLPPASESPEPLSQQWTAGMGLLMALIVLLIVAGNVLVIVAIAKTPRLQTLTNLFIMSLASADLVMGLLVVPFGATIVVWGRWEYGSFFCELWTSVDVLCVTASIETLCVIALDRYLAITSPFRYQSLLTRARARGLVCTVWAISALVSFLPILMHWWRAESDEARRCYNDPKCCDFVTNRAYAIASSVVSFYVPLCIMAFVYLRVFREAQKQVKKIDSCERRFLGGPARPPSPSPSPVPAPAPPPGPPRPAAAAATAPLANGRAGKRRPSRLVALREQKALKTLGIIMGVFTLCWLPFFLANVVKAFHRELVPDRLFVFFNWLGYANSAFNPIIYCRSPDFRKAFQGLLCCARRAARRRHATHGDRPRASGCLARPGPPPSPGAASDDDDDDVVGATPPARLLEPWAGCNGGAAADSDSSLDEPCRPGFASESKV

Below, each entry is followed by its recorded IC50 result.
c1ccc2c(c1)OCC(C1=NCCN1)O2 (stereo not drawn) ... > 1000 µM
CC(CN1c2ccccc2Sc2ccccc21)N(C)C (stereo not drawn) ... > 100 µM
CCN1CCCC1CNC(=O)c1cc(S(N)(=O)=O)ccc1OC (stereo not drawn) [sulpiride] ... > 1000 µM
O=C1NCN(c2ccccc2)C12CCN(CC1COc3ccccc3O1)CC2 (stereo not drawn) ... > 31.6 µM
CN(C)CC/C=C1\c2ccccc2CSc2ccccc21 [dosulepin] ... > 100 µM

Now consider a different compound.
Let me check: CCn1ccnc1CC1COc2ccccc2O1 (stereo not drawn) , system human β1‐adrenoceptor (Homo sapiens), measured IC50 is ~1000 µM

---

tgt: human α2B‐adrenoceptor (Homo sapiens, UniProt P18089)
Sequence (P18089 whole entry): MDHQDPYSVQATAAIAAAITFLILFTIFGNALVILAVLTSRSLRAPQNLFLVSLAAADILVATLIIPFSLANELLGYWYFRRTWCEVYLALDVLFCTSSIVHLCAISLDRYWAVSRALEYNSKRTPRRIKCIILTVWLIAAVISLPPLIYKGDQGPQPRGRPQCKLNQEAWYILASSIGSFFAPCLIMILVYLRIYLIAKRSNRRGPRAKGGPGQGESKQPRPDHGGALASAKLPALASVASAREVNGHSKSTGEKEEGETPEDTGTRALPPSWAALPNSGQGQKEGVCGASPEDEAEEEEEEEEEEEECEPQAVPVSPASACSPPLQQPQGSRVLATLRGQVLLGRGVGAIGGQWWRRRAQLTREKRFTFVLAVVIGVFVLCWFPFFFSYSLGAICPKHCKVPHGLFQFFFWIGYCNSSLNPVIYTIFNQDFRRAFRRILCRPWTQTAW
protocol description: ^3H‐rauwolscine whole cell competition binding, CHO‐α2B cells
experimental conditions: given as log KD (negative values); 3H-rauwolscine whole cell binding, CHO cells; mean ± s.e.mean
Log KD α2B overview
Enter the number alone.

Below, each entry is followed by its recorded Log KD α2B result.
COc1ccccc1N1CCN(CCN2C(=O)c3ccccc3C(C)(C)C2=O)CC1 ... -7.32
COc1ccccc1N1CCN(CC2CN3C(=O)N(C)c4ccccc4C3=N2)CC1 (stereo not drawn) ... -5.94
COc1ccccc1N1CCN(CCCNc2c(C)c(=O)n(C)c(=O)n2C)CC1 ... -5.17
CN1CC[C@]2(CCN3CCc4c(oc5ccccc45)[C@@H]3C2)N(C)C1=O ... -8.16

Now consider a different compound.
Note to self: Log KD α2B recorded for O=C1Nc2ccccc2C2=NC(CN3CCN(c4ccccc4)CC3)CN12 (stereo not drawn) was -6.14

---

tgt: human α2C‐adrenoceptor (Homo sapiens, UniProt P18825)
protocol description: ^3H‐rauwolscine whole cell competition binding, CHO‐α2C cells
experimental conditions: ratio of KD values
hey, just use Met if measured Selectivity ratio α2A vs α2C (higher affinity for α2C) is less than 4, otherwise Not met

COc1cccc(OC)c1OCCNCC1CSc2ccccc2O1 (stereo not shown) [benoxathian] ... Met

## Task For COc1ccccc1N1CCN(CC2CN3C(=O)N(C)c4ccccc4C3=N2)CC1 (stereo not shown) [2‐MPMDQ] , is the recorded Selectivity ratio α2A vs α2C (higher affinity for α2C) below the cut-off of 4?
## Result Not met

## Task For OCCN1CCN(CCC=C2c3ccccc3Sc3ccc(C(F)(F)F)cc32)CC1 [flupenthixol] , is the recorded Selectivity ratio α2A vs α2C (higher affinity for α2C) below the cut-off of 4?
## Result Not met

## Task For O=C1CCC(=O)N1C[C@H]1CC[C@H]2CN(c3ncccn3)CCN2C1 [sunepitron] , is the recorded Selectivity ratio α2A vs α2C (higher affinity for α2C) below the cut-off of 4?
## Result Not met

## Task For CNCCCN1c2ccccc2CCc2ccc(Cl)cc21 [norclomipramine] , is the recorded Selectivity ratio α2A vs α2C (higher affinity for α2C) below the cut-off of 4?
## Result Met

## Task For CCn1ccnc1CC1COc2ccccc2O1 (stereo not shown) [imiloxan] , is the recorded Selectivity ratio α2A vs α2C (higher affinity for α2C) below the cut-off of 4?
## Result Met

## Task For CCOc1ccccc1OCCN[C@H](C)Cc1ccc(OC)c(S(N)(=O)=O)c1 [tamsulosin] , is the recorded Selectivity ratio α2A vs α2C (higher affinity for α2C) below the cut-off of 4?
## Result Met

---

Kd overview
tgt: UniProtKB P18825
protocol description: cell-based
Write it as a number; the unit nM goes unstated.

Below, each entry is followed by its recorded Kd result.
O=C1NCN(c2ccccc2)C12CCN(CC1COc3ccccc3O1)CC2 (centres unmarked) [spiroxatrine] ... 1.82
Cc1ccc(Sc2ccccc2N2CCNCC2)c(C)c1 [vortioxetine] ... 1450
O=C1[C@@H]2[C@H]3CC[C@H](C3)[C@@H]2C(=O)N1C[C@@H]1CCCC[C@H]1CN1CCN(c2nsc3ccccc23)CC1 [lurasidone] ... 45.7
CN(C)CC/C=C1\c2ccccc2CSc2ccccc21 [dosulepin] ... 2340

Note to self: Kd recorded for O=C1CCC(=O)N1C[C@H]1CC[C@H]2CN(c3ncccn3)CCN2C1 [sunepitron] was 7.76

---

tgt: human α2A‐adrenoceptor (Homo sapiens, UniProt P08913)
Sequence (P08913 1-465): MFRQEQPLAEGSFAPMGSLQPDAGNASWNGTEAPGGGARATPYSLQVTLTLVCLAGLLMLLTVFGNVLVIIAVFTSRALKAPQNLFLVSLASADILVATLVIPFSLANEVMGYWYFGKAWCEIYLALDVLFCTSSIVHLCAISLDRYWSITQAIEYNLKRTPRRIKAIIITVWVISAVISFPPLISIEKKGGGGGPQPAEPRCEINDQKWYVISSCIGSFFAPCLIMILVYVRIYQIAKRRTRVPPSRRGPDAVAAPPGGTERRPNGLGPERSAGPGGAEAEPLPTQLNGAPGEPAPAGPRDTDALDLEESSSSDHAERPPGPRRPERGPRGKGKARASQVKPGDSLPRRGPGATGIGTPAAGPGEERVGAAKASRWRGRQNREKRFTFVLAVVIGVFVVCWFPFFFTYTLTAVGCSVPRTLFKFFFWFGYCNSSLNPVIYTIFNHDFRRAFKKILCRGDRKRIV
protocol description: ^3H‐rauwolscine whole cell competition binding, CHO‐α2A cells
experimental conditions: given as log KD (negative values); 3H-rauwolscine whole cell binding, CHO cells; mean ± s.e.mean
Log KD α2A overview
Enter the number alone.

Cc1ccc(OCC(O)C(C)NC(C)C)c2c1CCC2 (stereo not drawn) [ICI 118551] ... -5.03
CC(C)(C)NC[C@H](O)COc1cccc2[nH]c(C#N)cc12 [S-cyanopindolol] ... -5.56
COc1ccccc1N1CCN(CCCNc2c(C)c(=O)n(C)c(=O)n2C)CC1 [5-methyl-urapidil] ... -5.18
O=C1Nc2ccccc2C2=NC(CN3CCN(c4ccccc4)CC3)CN12 (stereo not drawn) [2-PMDQ] ... -6.83
COc1ccccc1N1CCN(CCN2C(=O)c3ccccc3C(C)(C)C2=O)CC1 [ARC 239] ... -5.99

Now consider a different molecule.
Note to self: Log KD α2A recorded for COc1ccccc1N1CCN(CC2CN3C(=O)N(C)c4ccccc4C3=N2)CC1 (stereo not drawn) [2-MPMDQ] was -6.79

---

tgt: human α2B‐adrenoceptor (Homo sapiens, UniProt P18089)
protocol description: ^3H‐rauwolscine whole cell competition binding, CHO‐α2B cells
value kind: Log KD α2B
Enter the number alone.

Below, each entry is followed by its recorded Log KD α2B result.
CN1CCc2cccc(Cl)c2CC1 ... −6.17
COc1cccc(OC)c1OCCNCC1CSc2ccccc2O1 (centres unmarked) ... −5.96
COc1ccccc1N1CCN(CCCNc2c(C)c(=O)n(C)c(=O)n2C)CC1 ... −5.17

Now consider a different compound.
Note to self: Log KD α2B recorded for CC(C)(Cc1c[nH]c2ccc(Cl)cc12)NCCOc1ccccc1OCC1CC1 was −5.65

---

tgt: human α2C‐adrenoceptor (Homo sapiens, UniProt P18825)
Sequence (P18825 1-462): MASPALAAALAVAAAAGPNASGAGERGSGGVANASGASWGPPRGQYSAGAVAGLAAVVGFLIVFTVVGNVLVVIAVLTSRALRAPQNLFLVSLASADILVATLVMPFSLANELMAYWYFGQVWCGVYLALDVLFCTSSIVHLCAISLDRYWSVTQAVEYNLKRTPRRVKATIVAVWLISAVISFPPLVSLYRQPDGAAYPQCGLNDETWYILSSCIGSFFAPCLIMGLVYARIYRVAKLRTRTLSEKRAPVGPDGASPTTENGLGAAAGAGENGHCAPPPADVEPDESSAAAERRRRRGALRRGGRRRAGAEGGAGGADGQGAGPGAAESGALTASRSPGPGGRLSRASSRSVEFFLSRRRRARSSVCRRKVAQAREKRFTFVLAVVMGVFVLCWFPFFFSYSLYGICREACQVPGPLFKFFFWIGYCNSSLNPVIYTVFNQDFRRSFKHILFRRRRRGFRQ
protocol description: ^3H‐rauwolscine whole cell competition binding, CHO‐α2C cells
experimental conditions: ratio of KD values
value kind: Selectivity ratio α2B vs α2C (higher affinity for α2C)
Enter the number alone.

CC(C(O)c1ccc(O)cc1)N1CCC(Cc2ccccc2)CC1 (stereo not drawn) [ifenprodil] ... 4.6
O=C1Nc2ccccc2C2=NC(CN3CCN(c4ccccc4)CC3)CN12 (stereo not drawn) [2‐PMDQ] ... 8.5
O=C1c2ccccc2CCC1CNCCc1ccc(O)cc1 (stereo not drawn) [HEAT] ... 2.1
Cc1c[nH]c(=O)n(CCCN2CCN(c3ccccc3OCC(F)(F)F)CC2)c1=O [RS100329] ... 22.4

Note to self: Selectivity ratio α2B vs α2C (higher affinity for α2C) recorded for COc1ccccc1N1CCN(CC2CN3C(=O)N(C)c4ccccc4C3=N2)CC1 (stereo not drawn) [2‐MPMDQ] was 36.3

Note to self: Selectivity ratio α2B vs α2C (higher affinity for α2C) recorded for CCS(=O)(=O)N1CCC[C@@H]2CN3CCc4cc(OC)ccc4[C@@H]3C[C@@H]21 [RS79948] was 6.2

Note to self: Selectivity ratio α2B vs α2C (higher affinity for α2C) recorded for COc1cccc(OC)c1OCCNCC1CSc2ccccc2O1 (stereo not drawn) [benoxathian] was 61.7

Note to self: Selectivity ratio α2B vs α2C (higher affinity for α2C) recorded for CCOc1ccccc1OCCN[C@H](C)Cc1ccc(OC)c(S(N)(=O)=O)c1 [tamsulosin] was 12.6

Note to self: Selectivity ratio α2B vs α2C (higher affinity for α2C) recorded for O=C(NC1CCN(CCc2c[nH]c3ccccc23)CC1)c1ccccc1 [indoramin] was 2.2

Entry source: paper PMC8882856
